experiment: Lapatinib pharmacokinetics and uptake in rat cerebrospinal fluid (CSF); format: in vivo, rats; conditions: male, Wistar, rat, cerebrospinal fluid (CSF), po, 100 mg/kg, lapatinib p.o. 100 mg/kg alone, 1 h; read-out: Clapatinib in CSF, S (medium value)
measured_attribute: concentration at 1 h (ng/mL)
# number only, unit ng/mL dropped from output

Return reported concentration at 1 h; argument: CS(=O)(=O)CCNCc1ccc(-c2ccc3ncnc(Nc4ccc(OCc5cccc(F)c5)c(Cl)c4)c3c2)o1 [lapatinib] 38.5

====

assay: Lapatinib pharmacokinetics and uptake in rat brain tissue (BT);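 as to BT corr (BT homogenate corrected), single rat: brain concentration corrected for residual brain blood by the Fridén method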; assay type: in vivo, rats; conditions: male, Wistar, rat, brain tissue homogenate, po, 100 mg/kg, lapatinib p.o. 100 mg/kg alone, 0.5 h; read-out: BT corr (BT homogenate corrected), single rat
measured_attribute: concentration at 0.5 h (ng/mL)
Respond with the bare value in ng/mL.

Can you share its concentration at 0.5 h? I mean this compound: CS(=O)(=O)CCNCc1ccc(-c2ccc3ncnc(Nc4ccc(OCc5cccc(F)c5)c(Cl)c4)c3c2)o1 24

====

experiment: Lapatinib pharmacokinetics and uptake in rat brain tissue (BT); type: in vivo, rats; details: male, Wistar, rat, brain tissue homogenate, po, 100 mg/kg, lapatinib p.o. 100 mg/kg alone, 3 h; read-out: Clapatinib in BT, S (medium value)
measured_attribute: concentration at 3 h (ng/mL)
Just the number please, in ng/mL, no unit attached.

Consider the molecule CS(=O)(=O)CCNCc1ccc(-c2ccc3ncnc(Nc4ccc(OCc5cccc(F)c5)c(Cl)c4)c3c2)o1 [lapatinib] and give its measured concentration at 3 h. 134

====

Assay: Lapatinib pharmacokinetics and uptake in rat cerebrospinal fluid (CSF)
Format: in vivo, rats
Settings: male, Wistar, rat, cerebrospinal fluid, po, 100 mg/kg, cerebrospinal fluid; lapatinib 100 mg/kg oral + 5 mg/kg elacridar (IE+L)
Experimental: This study was conducted on rats, which are a promising model to predict P-gp-based drug-drug interactions at the human BBB [15]. The animals were allowed to acclimate for one week before the beginning of the experiments. Adult male Wistar-strain rats (weight 470–525 g) were used in the study. […]
measured_attribute: AUC(0-t) (ng·h/mL)
Expressed in ng·h/mL, but write only the number.

Field request: AUC(0-t) | item: CS(=O)(=O)CCNCc1ccc(-c2ccc3ncnc(Nc4ccc(OCc5cccc(F)c5)c(Cl)c4)c3c2)o1 356

====

Assay: Lapatinib pharmacokinetics and uptake in rat cerebrospinal fluid (CSF)
Type: in vivo, rats
Settings: male, Wistar, rat, cerebrospinal fluid, po, 100 mg/kg
Protocol: This study was conducted on rats, which are a promising model to predict P-gp-based drug-drug interactions at the human BBB [15]. The animals were allowed to acclimate for one week before the beginning of the experiments. Adult male Wistar-strain rats (weight 470–525 g) were used in the study. […]
measured_attribute: k el (s⁻¹)
The response must be a number in s⁻¹ with no trailing unit.

Please report the recorded k el for CS(=O)(=O)CCNCc1ccc(-c2ccc3ncnc(Nc4ccc(OCc5cccc(F)c5)c(Cl)c4)c3c2)o1 . 6.39e-05

====

assay: Lapatinib pharmacokinetics and uptake in rat brain tissue (BT); type: in vivo, rats; conditions: male, Wistar, rat, brain tissue homogenate, po, 100 mg/kg, lapatinib p.o. 100 mg/kg alone, 8 h; read-out: BT corr (BT homogenate corrected), S
measured_attribute: concentration at 8 h (ng/mL)
Write it as a number; the unit ng/mL goes unstated.

Entry CS(=O)(=O)CCNCc1ccc(-c2ccc3ncnc(Nc4ccc(OCc5cccc(F)c5)c(Cl)c4)c3c2)o1 : reported concentration at 8 h = ? 66.2
